system: RAS-mutant NSCLC cell lines; test: Induction of apoptosis (caspase 3/7 activation) in panel of RAS-mutant NSCLC cell lines; assay type: cell-based; details: Ras mut NSCLC cell lines; caspase 3/7 activation, 24 hours of treatment
QUANTITY NAME: Response Rate (sensitivity/total lines tested), Cell Apoptosis (capsase 3/7)

Worked cases, Response Rate (sensitivity/total lines tested), Cell Apoptosis (capsase 3/7) given:
> print(dat)
                           molecular.string                target.system  value.observed
1  COc1ncc(-c2ccc3nccc(-c4ccnnc4)c3c2)cc1NS(=O)(=O)c1ccc(F)cc1F  RAS-mutant NSCLC cell lines       6% (1/16)
2  C#Cc1cccc(Nc2ncnc3cc(OCCOC)c(OCCOC)cc23)c1  RAS-mutant NSCLC cell lines       0% (0/24)
3  Cn1ncc(Cl)c1-c1cc(C(=O)N[C@H](CN)Cc2cccc(F)c2)sc1Cl  RAS-mutant NSCLC cell lines        0% (0/9)

Give a short answer stating reported Response Rate (sensitivity/total lines tested), Cell Apoptosis (capsase 3/7) for Cc1nc(Nc2ncc(C(=O)Nc3c(C)cccc3Cl)s2)cc(N2CCN(CCO)CC2)n1 . 0% (0/10)
